Molecular target: T1, recombinant mIL-17A (mouse, UniProt Q62386 26-158)
T1 sequence: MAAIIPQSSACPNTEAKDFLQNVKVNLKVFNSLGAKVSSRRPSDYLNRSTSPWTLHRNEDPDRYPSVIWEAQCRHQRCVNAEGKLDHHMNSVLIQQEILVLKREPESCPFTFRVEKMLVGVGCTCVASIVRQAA
Assay: cell-based or functional assay
Recorded IC50, KC secretion by CMT-93 cells; mIL-17A (0.15 nM) values for a group of binders are listed next.

Some binders with recorded IC50, KC secretion by CMT-93 cells; mIL-17A (0.15 nM):
binder: XAB4 (antibody, human IgG1, kappa, V domains shown) VH: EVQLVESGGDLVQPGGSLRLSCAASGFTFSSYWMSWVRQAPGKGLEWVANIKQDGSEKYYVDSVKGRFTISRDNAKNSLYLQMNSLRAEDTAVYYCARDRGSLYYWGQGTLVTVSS VL: AIQLTQSPSSLSASVGDRVTITCRPSQGINWELAWYQQKPGKAPKLLIYDASSLEQGVPSRFSGSGSGTDFTLTISSLQPEDFATYYCQQFNSYPLTFGGGTKVEIKR
meas_value: 7 nM

binder: XAB5 (antibody, human IgG1, kappa, V domains shown) VH: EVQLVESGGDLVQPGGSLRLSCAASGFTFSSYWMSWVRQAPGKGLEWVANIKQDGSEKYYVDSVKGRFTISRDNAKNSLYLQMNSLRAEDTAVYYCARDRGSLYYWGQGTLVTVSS VL: AIQLTQSPSSLSASVGDRVTITCRPSQGINWELAWYQQKPGKAPKLLIYDASSLENGVPSRFSGSGSGTDFTLTISSLQPEDFATYYCQQFNSYPLTFGGGTKVEIKR
meas_value: 7.8 nM

binder: XAB1 (antibody, human IgG1, kappa, V domains shown) VH: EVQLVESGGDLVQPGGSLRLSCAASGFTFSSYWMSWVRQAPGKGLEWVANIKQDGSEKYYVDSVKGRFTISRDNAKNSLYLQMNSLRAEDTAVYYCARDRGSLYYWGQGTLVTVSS VL: AIQLTQSPSSLSASVGDRVTITCRPSQGIISALAWYQQKPGKAPKLLIYDASSLENGVPSRFSGSGSGTDFTLTISSLQPEDFATYYCQQFNSYPLTFGGGTKVEIKR
meas_value: 128 nM

Endpoint output: IC50, KC secretion by CMT-93 cells; mIL-17A (0.15 nM) of XAB3 (antibody, human IgG1, kappa, V domains shown) VH: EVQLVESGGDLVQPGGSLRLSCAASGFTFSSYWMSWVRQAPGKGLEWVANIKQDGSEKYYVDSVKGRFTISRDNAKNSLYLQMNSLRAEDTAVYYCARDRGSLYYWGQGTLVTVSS VL: AIQLTQSPSSLSASVGDRVTITCRPSQGIYWELAWYQQKPGKAPKLLIYDASSLEQGVPSRFSGSGSGTDFTLTISSLQPEDFATYYCQQFNSYPLTFGGGTKVEIKR . Value? < 1 nM

Can you check XAB2 (antibody, human IgG1, kappa, V domains shown, full IgG) VH: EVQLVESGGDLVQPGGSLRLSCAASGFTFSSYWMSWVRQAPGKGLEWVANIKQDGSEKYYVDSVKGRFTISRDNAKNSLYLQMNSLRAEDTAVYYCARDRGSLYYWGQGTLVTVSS VL: AIQLTQSPSSLSASVGDRVTITCRPSQVIISALAWYQQKPGKAPKLLIYDASSLEQGVPSRFSGSVSGTDFTLTISSLQPEDFATYYCQQFDSYPLTFGGGTKVEIKR next? 20.9 nM
